These entries and their values trace back to ChEMBL document CHEMBL3988442.

# target: Protein translocase subunit SecA (Escherichia coli (strain K12))
# run-description: Assay to Identify E. coli SecA ATPase Inhibitors
# Assay type: functional
# Design: scale not given: direction of the effect not stated beside the values
# condition-description: 30 µM
Measured potencies and affinities stand elsewhere.
Each item that follows carries a reported Percent Effect.
// note: answer is a bare numeric in %

A selection of reference data follows.
compound: COCC(=O)N1CCC(c2cc(C(F)(F)F)n3ccnc3n2)CC1
assay-value: -4.74
//
compound: Cn1cc(CC(=O)N2CCC(Nc3cccnn3)CC2)c2ccccc21
assay-value: -3.59
//
compound: Cc1ccc(C#N)cc1NC(=O)NC1CCCN(c2ncccn2)C1 (configuration not stated)
assay-value: -5.74
//
compound: CCN1CC(C(=O)NCc2ccnc(-n3ccnc3C)c2)CC1=O (configuration not stated)
assay-value: -2.69
//
compound: Cn1cnc2c1CCN(Cc1cccc(OCC(N)=O)c1)C2
assay-value: -0.391
//
compound: Cc1ccc(NC2CCN(C(=O)c3cnc(C)s3)CC2)nn1
assay-value: -3.62
//
compound: c1ccc(-c2nc(CN3CCOC(Cn4cccn4)C3)no2)cc1 (configuration not stated)
assay-value: -2.84
//
compound: O=C([C@H]1C[C@H]2OCC[C@H]2N(C(=O)c2ccncc2)C1)N1CCCCO1
assay-value: -6.09

Quick one: Percent Effect for O=C(CCN1CCCN(c2nccs2)CC1)NCC1CCCCC1 ?
-2.39

Dear colleague, I am looking for the recorded Percent Effect of the following compound: CCn1cc(CN2CCCN(C(=O)c3sccc3C#N)CC2)cn1
-4.12

Given the compound Cc1cc(C)n(CC2CN(CC(=O)Nc3c(C)n[nH]c3C)CCO2)n1 (configuration not stated) , what is its reported Percent Effect?
-3.28

Item under review: COc1ccc(C(CO)NC(=O)Nc2cccc(C#N)c2)cc1 (configuration not stated) . Reported Percent Effect?
-1.84

Value lookup for Percent Effect; key = CCn1c(C(=O)N2CCN(C(=O)COC)CC2)cc2ccccc21
-10.4

Look up Percent Effect: O=C(NCCNc1ncccn1)C1CCN(CC(F)(F)F)CC1
-4.28
